- test_protocol: Pharmacokinetic properties in the mouse after i.p. administration
- Format: in vivo
- protocol_conditions: brain, ip, read-out: Uptake ratio to the brain
measured_quantity: Kp
In your answer, state the number alone without any accompanying words.

Prompt: What value of measured Kp is listed for `CCN(C)C(=O)Oc1nc(-c2ccccc2)nc2ccccc12` ?
Completion: 0.2

---

- test_protocol: Pharmacokinetic properties in the mouse after i.p. administration
- Assay type: in vivo
- protocol_conditions: in vivo, ip
measured_quantity: half-life (h)
Give just the number in h; leave the unit off.

Prompt: Find the recorded half-life belonging to `CCN(C)C(=O)Oc1nc(-c2ccccc2)nc2ccccc12` and report it.
Completion: 3.5

---

- Test system: U118MG cells
- test_protocol: Protection against cell death induced by glutamate in U118MG cell culture
- Type: cell-based, human
- protocol_conditions: cell culture, grade in words
- Description: Cell cultures of various human glial type cell lines (T98G, U87MG, A172, U118MG), as well as human neuronal type cell lines SH-SY 5Y and Be(2)-C were used to test the new compounds. In addition, the rat glioma cell line C6 was used. PC12 cells originating from rats were used as another cell line displaying neuronal characteristics. […]
measured_quantity: Protection against glutamate-induced cell death

{"columns": ["molecule", "result"],
 "data": [
  ["CCN(CC)C(=O)Oc1nc(-c2ccc(F)c(Cl)c2)nc2ccccc12", "Good"],
  ["CN(C)C(=O)Oc1nc(-c2ccccc2Cl)nc2ccccc12", "Excellent"],
  ["CCN(C)C(=O)Oc1nc(-c2ccccc2Cl)nc2ccccc12", "Excellent"],
  ["CCN(CC)C(=O)Oc1nc(-c2ccccc2)nc2ccccc12 [Compound 7, 2-phenylquinazolin-4-yl diethylcarbamate]", "Good"],
  ["CN(C)C(=O)Oc1nc(-c2ccccc2)nc2ccccc12 [Compound A, reference compound]", "Good"]
]}

Prompt: Returns the measured Protection against glutamate-induced cell death for the input molecule. Input: `CCN(CC)C(=O)Oc1nc(-c2ccc(Br)cc2)nc2ccccc12`
Completion: Good

Prompt: Value lookup for Protection against glutamate-induced cell death; key = `CCN(C)C(=O)Oc1nc(-c2ccccc2)nc2ccccc12`
Completion: Excellent

Prompt: Item `CCN(CC)C(=O)Oc1nc(-c2ccccc2Cl)nc2ccccc12` has what recorded Protection against glutamate-induced cell death?
Completion: Good

Prompt: Which Protection against glutamate-induced cell death is reported for this molecule? `CCN(CC)C(=O)Oc1nc(-c2c(Cl)cccc2Cl)nc2ccccc12`
Completion: Good

---

- assayed_system: TSPO (Homo sapiens (Human), UniProt P30536)
- Sequence (P30536 whole entry): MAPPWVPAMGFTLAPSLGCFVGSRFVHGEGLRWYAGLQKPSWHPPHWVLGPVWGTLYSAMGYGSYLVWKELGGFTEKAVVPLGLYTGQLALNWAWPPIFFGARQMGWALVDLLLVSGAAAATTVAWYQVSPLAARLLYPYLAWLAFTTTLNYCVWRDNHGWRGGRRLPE
- Format: binding
- protocol_conditions: displacement of [3H]PK 11195 from TSPO
pKi: −log10 of the molar value.
measured_quantity: pKi

Prompt: Entry under review: `CCN(CC)C(=O)Oc1nc(-c2ccc(F)c(Cl)c2)nc2ccccc12` . Reported pKi?
Completion: ~6.42

Prompt: Please give the measured pKi for this molecule: `CCN(CC)C(=O)Oc1nc(-c2ccc(Br)cc2)nc2ccccc12`
Completion: ~7.35

Prompt: Recorded pKi for `CCN(C)C(=O)Oc1nc(-c2ccccc2Cl)nc2ccccc12` , please?
Completion: ~7.22

Prompt: # query: pKi of entry `CN(C)C(=O)Oc1nc(-c2ccccc2Cl)nc2ccccc12`
Completion: ~6.22

Prompt: // pKi lookup, key: CCN(CC)C(=O)Oc1nc(-c2ccccc2)nc2ccccc12 [Compound 7, 2-phenylquinazolin-4-yl diethylcarbamate]
Completion: ~8.60

Prompt: Value lookup for pKi; key = `CCN(C)C(=O)Oc1nc(-c2ccccc2)nc2ccccc12`
Completion: ~7.22

Prompt: Look up pKi: `CCN(CC)C(=O)Oc1nc(-c2c(Cl)cccc2Cl)nc2ccccc12`
Completion: ~5.82

Prompt: Look at this molecule and give its reported pKi. `CCN(CC)C(=O)Oc1nc(-c2ccccc2Cl)nc2ccccc12`
Completion: ~8.60

Prompt: Any idea what pKi was measured for CN(C)C(=O)Oc1nc(-c2ccccc2)nc2ccccc12 [Compound A, reference compound] ?
Completion: ~6.22
